Hey, just so you know, these numbers are from ChEMBL document CHEMBL5143752.

# test.summary: Acute toxicity in mouse assessed as maximum tolerated dose measured for 24 hrs
# condition.notes: in vivo
measured.property: MTD at 24 h (mg/kg)
Reply numerically in mg/kg, unit not repeated.

(Q) Form field: reported MTD at 24 h of `CC(C)[C@@]12C[C@@H](OC(=O)COC(=O)c3ccccc3)[C@@](C)(O1)[C@@H]1CC[C@@H](C)[C@H]1[C@@H]2OC(=O)/C=C/c1ccccc1`
(A) 0.4

(Q) What value of MTD at 24 h has been reported for the following compound? `CC(C)[C@@]12C[C@@H](OC(=O)COC(=O)/C=C/c3ccccc3)[C@@](C)(O1)[C@@H]1CC[C@@H](C)[C@H]1[C@@H]2OC(=O)/C=C/c1ccccc1`
(A) 1

(Q) # query: MTD at 24 h of entry `CCCCCC(=O)OCC(=O)O[C@@H]1C[C@]2(C(C)C)O[C@@]1(C)[C@@H]1CC[C@@H](C)[C@H]1[C@@H]2OC(=O)/C=C/c1ccccc1`
(A) 0.4

(Q) MTD at 24 h lookup needed for `CC(C)=CC(=O)OCC(=O)O[C@@H]1C[C@]2(C(C)C)O[C@@]1(C)[C@@H]1CC[C@@H](C)[C@H]1[C@@H]2OC(=O)/C=C/c1ccccc1` , thanks.
(A) 0.4

(Q) Which MTD at 24 h value is on record for `CC(=O)OCC(=O)O[C@@H]1C[C@]2(C(C)C)O[C@@]1(C)[C@@H]1CC[C@@H](C)[C@H]1[C@@H]2OC(=O)/C=C/c1ccccc1` ?
(A) 0.2
